Assay: Multiple component PK study in rat plasma after p.o. GDDP (HPLC-MS)
Details: Sprague-Dawley, rat, plasma, po, 0.8 g/kg, Cmax, rat plasma, GDDP 0.8 g/kg p.o. (High dose group), n=3
Kindly supply the reported Cmax values for the records listed here.
Unit ng/mL implied. Number only.

Input line: Given the entry CC(C)=CCC[C@](C)(O[C@@H]1O[C@H](CO)[C@@H](O)[C@H](O)[C@H]1O)[C@H]1CC[C@]2(C)[C@@H]1[C@H](O)C[C@@H]1[C@@]3(C)CC[C@H](O)C(C)(C)[C@@H]3[C@@H](O[C@@H]3O[C@H](CO)[C@@H](O)[C@H](O)[C@H]3O[C@@H]3OC[C@@H](O)[C@H](O)[C@H]3O)C[C@]12C [R1, notoginsenoside R1] , report its measured Cmax.
Output line: 259

Input line: // lookup Cmax for C[C@H]1COC2=C1C(=O)C(=O)c1c2ccc2c1CCCC2(C)C
Output line: 4.09

Input line: Please report the recorded Cmax for Cc1coc2c1C(=O)C(=O)c1c-2ccc2c1CCCC2(C)C .
Output line: 9.21

---

Assay: Multiple component PK study in rat plasma after p.o. GDDP (HPLC-MS)
Details: Sprague-Dawley, rat, plasma, po, 0.4 g/kg
READOUT_TYPE: log10 of MRT inf (log10 of the value in h)
Short version: log10 scale, MRT inf, h.

Input line: # query: log10 of MRT inf of entry C[C@H]1COC2=C1C(=O)C(=O)c1c2ccc2c1CCCC2(C)C
Output line: -0.16

Input line: Dear colleague, I am looking for the recorded log10 of MRT inf of the following molecule: Cc1cccc2c3c(ccc12)C1=C(C(=O)C3=O)[C@@H](C)CO1 [DHTS I, dihydrotanshinone I]
Output line: 0.84

Input line: Tell me the measured log10 of MRT inf of Cc1coc2c1C(=O)C(=O)c1c-2ccc2c(C)cccc12 , please.
Output line: 1.44

Input line: Given CC(C)=CCC[C@](C)(O[C@@H]1O[C@H](CO[C@@H]2O[C@H](CO)[C@@H](O)[C@H](O)[C@H]2O)[C@@H](O)[C@H](O)[C@H]1O)[C@H]1CC[C@]2(C)[C@@H]1[C@H](O)C[C@@H]1[C@@]3(C)CC[C@H](O[C@@H]4O[C@H](CO)[C@@H](O)[C@H](O)[C@H]4O[C@@H]4O[C@H](CO)[C@@H](O)[C@H](O)[C@H]4O)C(C)(C)[C@@H]3CC[C@]12C [Rb1, ginsenoside Rb1] , state its recorded log10 of MRT inf.
Output line: 1.56

Input line: May I ask what log10 of MRT inf has been recorded for CC(C)=CCC[C@](C)(O[C@@H]1O[C@H](CO)[C@@H](O)[C@H](O)[C@H]1O)[C@H]1CC[C@]2(C)[C@@H]1[C@H](O)C[C@@H]1[C@@]3(C)CC[C@H](O[C@@H]4O[C@H](CO)[C@@H](O)[C@H](O)[C@H]4O[C@@H]4O[C@H](CO)[C@@H](O)[C@H](O)[C@H]4O)C(C)(C)[C@@H]3CC[C@]12C [Rd, ginsenoside Rd] ?
Output line: 1.11

Input line: For CC(C)=CCC[C@](C)(O[C@@H]1O[C@H](CO)[C@@H](O)[C@H](O)[C@H]1O)[C@H]1CC[C@]2(C)[C@@H]1[C@H](O)C[C@@H]1[C@@]3(C)CC[C@H](O)C(C)(C)[C@@H]3[C@@H](O[C@@H]3O[C@H](CO)[C@@H](O)[C@H](O)[C@H]3O[C@@H]3OC[C@@H](O)[C@H](O)[C@H]3O)C[C@]12C [R1, notoginsenoside R1] , what is its reported log10 of MRT inf?
Output line: 0.12

---

Test: Stability tests in rat plasma (QC samples, HPLC-MS)
Settings: 24h in auto-sampler vials, spiked 2 ng/mL, n=5
So I've got a bunch of compounds here, and I need their Stability: Measured values.
Your answer should be a plain number; it is taken to be in ng/mL.

Input line: Record request: Stability: Measured value, item C[C@H]1COC2=C1C(=O)C(=O)c1c2ccc2c1CCCC2(C)C [CTS, cryptotanshinone]
Output line: 1.79

Input line: # get_value(readout='Stability: Measured', item= CC(C)=CCC[C@](C)(O[C@@H]1O[C@H](CO[C@@H]2O[C@H](CO)[C@@H](O)[C@H](O)[C@H]2O)[C@@H](O)[C@H](O)[C@H]1O)[C@H]1CC[C@]2(C)[C@@H]1[C@H](O)C[C@@H]1[C@@]3(C)CC[C@H](O[C@@H]4O[C@H](CO)[C@@H](O)[C@H](O)[C@H]4O[C@@H]4O[C@H](CO)[C@@H](O)[C@H](O)[C@H]4O)C(C)(C)[C@@H]3CC[C@]12C [Rb1, ginsenoside Rb1] )
Output line: 1.97

---

Assay: Multiple component PK study in rat plasma after p.o. GDDP (HPLC-MS)
Conditions: Sprague-Dawley, rat, plasma, po, 0.8 g/kg, t1/2 β (fast / slow elimination type), rats, GDDP 0.4 and 0.8 g/kg p.o.; classification
For each entry below, report its half-life value.

Input line: If you can, please state the reported half-life value of C[C@H]1COC2=C1C(=O)C(=O)c1c2ccc2c1CCCC2(C)C .
Output line: < 120 min

Input line: # lookup: half-life of CC(C)=CCC[C@](C)(O[C@@H]1O[C@H](CO[C@@H]2O[C@H](CO)[C@@H](O)[C@H](O)[C@H]2O)[C@@H](O)[C@H](O)[C@H]1O)[C@H]1CC[C@]2(C)[C@@H]1[C@H](O)C[C@@H]1[C@@]3(C)CC[C@H](O[C@@H]4O[C@H](CO)[C@@H](O)[C@H](O)[C@H]4O[C@@H]4O[C@H](CO)[C@@H](O)[C@H](O)[C@H]4O)C(C)(C)[C@@H]3CC[C@]12C [Rb1, ginsenoside Rb1]
Output line: > 156 min

Input line: What value of half-life has been recorded for this entry: Cc1cccc2c3c(ccc12)C1=C(C(=O)C3=O)[C@@H](C)CO1 [DHTS I, dihydrotanshinone I]
Output line: > 156 min

---

Record form. Attribute: Stability: Measured. Fill in for each entry.
Assay: Stability tests in rat plasma (QC samples, HPLC-MS)
Details: three freeze-thaw cycles, rat plasma, spiked 400 ng/mL, n=5
Answer with a number only, understood to be in ng/mL.

Input line: // returns reported Stability: Measured for input Cc1cccc2c3c(ccc12)C1=C(C(=O)C3=O)[C@@H](C)CO1 [DHTS I, dihydrotanshinone I]
Output line: 437.97

Input line: Quick one: Stability: Measured for Cc1coc2c1C(=O)C(=O)c1c-2ccc2c(C)cccc12 ?
Output line: 459.00

Input line: What does the record list as Stability: Measured for CC(C)=CCC[C@](C)(O[C@@H]1O[C@H](CO)[C@@H](O)[C@H](O)[C@H]1O)[C@H]1CC[C@]2(C)[C@@H]1[C@H](O)C[C@@H]1[C@@]3(C)CC[C@H](O)C(C)(C)[C@@H]3[C@@H](O[C@@H]3O[C@H](CO)[C@@H](O)[C@H](O)[C@H]3O[C@@H]3OC[C@@H](O)[C@H](O)[C@H]3O)C[C@]12C [R1, notoginsenoside R1] ?
Output line: 395.28

Input line: Which Stability: Measured value is on record for CC(C)=CCC[C@](C)(O[C@@H]1O[C@H](CO[C@@H]2O[C@H](CO)[C@@H](O)[C@H](O)[C@H]2O)[C@@H](O)[C@H](O)[C@H]1O)[C@H]1CC[C@]2(C)[C@@H]1[C@H](O)C[C@@H]1[C@@]3(C)CC[C@H](O[C@@H]4O[C@H](CO)[C@@H](O)[C@H](O)[C@H]4O[C@@H]4O[C@H](CO)[C@@H](O)[C@H](O)[C@H]4O)C(C)(C)[C@@H]3CC[C@]12C [Rb1, ginsenoside Rb1] ?
Output line: 394.28

---

Test: Stability tests in rat plasma (QC samples, HPLC-MS)
Details: three freeze-thaw cycles, rat plasma, spiked 1600 ng/mL, n=5
What Stability: Measured was measured for each of the following?
// note: answer is a bare numeric in ng/mL

Input line: Record request: Stability: Measured value, item C[C@H]1COC2=C1C(=O)C(=O)c1c2ccc2c1CCCC2(C)C
Output line: 1871.43

Input line: Requested field: Stability: Measured. Item: Cc1coc2c1C(=O)C(=O)c1c-2ccc2c(C)cccc12
Output line: 1482.38

Input line: Report Stability: Measured for CC(C)=CCC[C@](C)(O[C@@H]1O[C@H](CO)[C@@H](O)[C@H](O)[C@H]1O)[C@H]1CC[C@]2(C)[C@@H]1[C@H](O)C[C@@H]1[C@@]3(C)CC[C@H](O[C@@H]4O[C@H](CO)[C@@H](O)[C@H](O)[C@H]4O[C@@H]4O[C@H](CO)[C@@H](O)[C@H](O)[C@H]4O)C(C)(C)[C@@H]3CC[C@]12C [Rd, ginsenoside Rd] please.
Output line: 1768.72

Input line: Which value of Stability: Measured has been reported for CC(C)=CCC[C@](C)(O[C@@H]1O[C@H](CO)[C@@H](O)[C@H](O)[C@H]1O)[C@H]1CC[C@]2(C)[C@@H]1[C@H](O)C[C@@H]1[C@@]3(C)CC[C@H](O)C(C)(C)[C@@H]3[C@@H](O[C@@H]3O[C@H](CO)[C@@H](O)[C@H](O)[C@H]3O[C@@H]3OC[C@@H](O)[C@H](O)[C@H]3O)C[C@]12C [R1, notoginsenoside R1] in the records?
Output line: 1784.04

Input line: Look up Stability: Measured: CC(C)=CCC[C@](C)(O[C@@H]1O[C@H](CO[C@@H]2O[C@H](CO)[C@@H](O)[C@H](O)[C@H]2O)[C@@H](O)[C@H](O)[C@H]1O)[C@H]1CC[C@]2(C)[C@@H]1[C@H](O)C[C@@H]1[C@@]3(C)CC[C@H](O[C@@H]4O[C@H](CO)[C@@H](O)[C@H](O)[C@H]4O[C@@H]4O[C@H](CO)[C@@H](O)[C@H](O)[C@H]4O)C(C)(C)[C@@H]3CC[C@]12C [Rb1, ginsenoside Rb1]
Output line: 1601.88

Input line: Record request: Stability: Measured value, item Cc1coc2c1C(=O)C(=O)c1c-2ccc2c1CCCC2(C)C
Output line: 1830.46

Data provenance: paper PMC6308302
